B1: SPOPL (parent)
chain: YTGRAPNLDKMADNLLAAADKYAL

- Variants of: B1
- assay.method.text: protein stability index of a GFP-peptide fusion (GPS, HEK-293T) (PSI 1-6); higher = more stable;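 further: lentivirally expressed fusions sorted by FACS into six bins by GFP to DsRed ratio, PSI derived from sequencing read proportions per bin multiplied by bin number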
- stated.conditions: c terminus: a fixed tail appended
measure: protein stability index
Please give only the number in your answer, with no unit.

Examples with their reported protein stability index follow.
variant_id=A18H quantitative_result=1.96
variant_id=D20C quantitative_result=1.99
variant_id=D9C quantitative_result=1.99
variant_id=N14Q quantitative_result=2.01
variant_id=A17V quantitative_result=2
variant_id=R4H quantitative_result=2.04
variant_id=N14G quantitative_result=2.05
variant_id=A5P quantitative_result=2

Now, please, on to the next variant.
Sample T2W — what was its protein stability index? 2.01
